# subject.of.test: Short transient receptor potential channel 4 (Mus musculus)
# assay.protocol: mouse TRPC4 membrane potential modulation by TRPC6 hits, confirmation, selectivity assay for TRPC6 inhibitor project, cell-based, second specificity screen, HEK293 TRPC4/mu-opioid (AID 2776)
# measurement.conditions: HEK293 TRPC4/MOR, membrane potential dye fluorescence, at 10 µM, channel activated by saturating DAMGO dose; hits give high values
This is one part of the list. Active and inactive are the calls of the source.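 Rule for the calls: active = compounds whose fluorescence signal differed from control wells by over 3 SD, either direction, in both duplicate plates; inactive = the rest.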
parameter.measured: inhibition

Here are 4 compounds together with their reported answers.
>>> result("CC(C)(C)NCc1cc(Br)ccc1OC1CCCC1")
"36% (active)"
>>> result("CC(C)c1ccc(OCC(O)Cn2cnc3ccccc32)cc1 (stereo not given)")
"inactive"
>>> result("Cc1cc(Nc2ccc(N3CCOCC3)cc2)c2cccc(C)c2n1")
"59% (active)"
>>> result("CCOC(=O)N1CCC(NC(=O)CN2C(=O)COc3ccc(C(C)(C)C)cc32)CC1")
"inactive"

Now consider the entry below.
Notebook entry, Short transient receptor potential channel 4 (Mus musculus) assay: inhibition of CCN(CC)c1ccc2cc(C(N)=O)/c(=N\NC(=O)c3ccncc3)oc2c1 = ?
70.5% (active)

###

# subject.of.test: Potassium voltage-gated channel subfamily KQT member 1 (Homo sapiens)
# assay.protocol: KCNQ1 potassium channel potentiators, confirmation, FluxOR thallium flux, CHO cells, duplicates (AID 493007)
# measurement.conditions: KCNQ1 cell line, FluxOR thallium flux fluorescence, at 10 µM, % of reference activator effect, buffer zero
Activity calls are given as the source filed them.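 The calls were made as follows: active = potentiation averaged over duplicate wells exceeding buffer-only control mean by more than 3 SD; inactive = the rest.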
Answer with one of the outcomes given here: yes (active), no (inactive)

>>> label("O=C(NC(=S)Nc1ccccc1N1CCCC1)c1cccs1")
"yes"
>>> label("CC(C)(C)c1ccc2c(c1)OC(C(=O)N/N=C\\c1ccccn1)CO2 (stereo not given)")
"no"
>>> label("CCC1CCCCN1CCCNC(=O)CSc1nc2nc(C)c(Cc3ccccc3)c(C)n2n1 (stereo not given)")
"no"

Kindly provide the recorded test outcome for the following compound: CCOC(=O)N1CCC(NC(=O)c2cc(C(=O)NCc3ccc(F)cc3)ccc2CO)CC1
no

Follow-up entry: COc1cc(CN2CCN(c3cccc(Cl)c3)CC2)cc(OC)c1OC
no

###

# subject.of.test: Short transient receptor potential channel 4 (Mus musculus)
# assay.protocol: calcium flux activators in TRPC4/5HT1a cells, counter-screen for TRPC4 activator project, cell-based, second counter screen, HEK293 TRPC4/5HT1a, Fluo-4 (AID 434977)
# measurement.conditions: Fluo-4 calcium flux, at 10 µM
The source made the active and inactive calls.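 How the source made its calls: active means calcium signal rise above buffer-control mean plus 5 SD in both duplicates, and also a hit in the primary screen; inactive means the rest.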
Outcome (select one): 1 (active), 0 (inactive)

Look over these answered cases.
>>> label("COc1ccc(C(CNC(=O)c2cccc(NS(=O)(=O)c3ccc(C)c(F)c3)c2)N(C)C)cc1 (stereo not given)")
0
>>> label("COc1ccccc1N1CCN(C(c2cccs2)C(C)NC(=O)c2cccs2)CC1 (stereo not given)")
0
>>> label("CC(NCc1cc(Br)ccc1OCC(=O)NCc1ccccc1)c1ccccc1 (stereo not given)")
0
>>> label("COc1ccc(C(CNC(=O)c2cccc3cccnc23)N(C)C)cc1 (stereo not given)")
0
>>> label("CCOC(=O)c1c(NC(=O)COC(=O)Cc2c[nH]c3ccccc23)sc(C(=O)N(C)C)c1C")
1
>>> label("O=C(COc1ccccc1)NNC(=S)NC(=O)c1ccc(Cl)cc1Cl")
1
>>> label("CCn1c(=O)cc(OCC(=O)NCCCN2CC(C)CC(C)C2)c2ccccc21 (stereo not given)")
1
>>> label("c1ccc(Nc2nc(Nc3ccccc3)nc(N3CCNCC3)n2)cc1")
1
>>> label("CCn1c(N2CCN(Cc3ccc([N+](=O)[O-])cc3)CC2)nc2ccccc21")
1

Consider now this further compound.
Could you kindly confirm the outcome this assay logged for Cc1ccn2cc(CCNC(=O)C3CC=CCC3C(=O)O)nc2c1 (stereo not given) ?
1

###

# subject.of.test: Potassium voltage-gated channel subfamily KQT member 1 (Homo sapiens) (UniProt P51787)
# Sequence (P51787 whole entry, looked up): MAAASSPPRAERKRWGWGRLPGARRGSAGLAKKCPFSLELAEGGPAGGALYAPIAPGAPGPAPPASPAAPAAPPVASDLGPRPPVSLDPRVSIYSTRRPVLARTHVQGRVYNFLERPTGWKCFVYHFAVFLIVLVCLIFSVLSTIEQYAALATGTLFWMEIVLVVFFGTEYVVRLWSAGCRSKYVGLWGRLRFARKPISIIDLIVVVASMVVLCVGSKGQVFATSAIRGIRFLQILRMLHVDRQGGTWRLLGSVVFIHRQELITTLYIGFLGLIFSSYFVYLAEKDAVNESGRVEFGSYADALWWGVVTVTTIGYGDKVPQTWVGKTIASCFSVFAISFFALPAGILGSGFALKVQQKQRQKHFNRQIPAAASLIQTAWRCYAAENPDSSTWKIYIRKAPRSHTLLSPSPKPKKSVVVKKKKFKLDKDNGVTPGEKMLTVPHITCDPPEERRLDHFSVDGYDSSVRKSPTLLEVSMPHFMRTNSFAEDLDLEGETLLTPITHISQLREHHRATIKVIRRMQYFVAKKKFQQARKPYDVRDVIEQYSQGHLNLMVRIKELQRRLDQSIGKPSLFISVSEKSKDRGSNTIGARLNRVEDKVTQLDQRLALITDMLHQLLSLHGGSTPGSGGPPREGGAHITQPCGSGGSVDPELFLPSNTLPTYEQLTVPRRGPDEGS
# assay.protocol: KCNQ1 potassium channel potentiators, confirmation, FluxOR thallium flux, CHO cells, duplicates (AID 493007);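 for potentiation: 0% = buffer-only wells and 100% = R-L3 activator control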
# measurement.conditions: KCNQ1 cell line, FluxOR thallium flux fluorescence, at 10 µM; hits give high values, % of reference activator effect, buffer zero
Activity calls are given as the source filed them.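 The calls were made as follows: active = potentiation averaged over duplicate wells exceeding buffer-only control mean by more than 3 SD; inactive = the rest.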
parameter.measured: potentiation

Worked set:
>>> result("COc1ccc(N2CCN(CC(=O)Nc3nc(C)cs3)CC2)cc1")
"inactive"
>>> result("O=[N+]([O-])c1ccc(S(=O)(=O)CC(CN2CCCCC2)N2CCCCC2)cc1 (stereo unspecified)")
"inactive"
>>> result("CCN(CC(=O)Nc1ccc(OC)cc1)C(=O)CSCC(=O)Nc1ccc(C)cc1")
"inactive"
>>> result("COc1ccc(/C=C(\\NC(=O)c2cccs2)C(=O)N2CCOCC2)cc1OC")
"29.5% (active)"
>>> result("COc1cccc(/C=N/Nc2snc(SC)c2C#N)c1O")
"inactive"
>>> result("Cc1ccc(C)c(NC(=S)N/N=C2/CCCCc3ccccc32)c1")
"37% (active)"

Recall the recorded potentiation for CSc1nc(SCC(=O)O)c2sc3nc(-c4ccccc4)c4c(c3c2n1)CCC4 with Potassium voltage-gated channel subfamily KQT member 1 (Homo sapiens) (UniProt P51787) and state it.
30% (active)

Now the same for Cn1c(=O)c2nc3ccccc3nc2n(C)c1=O
30.5% (active)

Request: CCOc1ccc(CCNC(=O)CSc2nc3ncc(Cl)cc3[nH]2)cc1OCC
inactive

Now this one: CC(=O)c1c(NC(=O)c2ccccc2)[nH]c(-c2ccccc2)nc1=S
67% (active)

And then Cc1cc(C)c(NC(=O)CN2C(=O)NC3(CCCc4ccccc43)C2=O)c(Cl)c1 (stereo unspecified) , what is it?
inactive

###

# subject.of.test: Potassium voltage-gated channel subfamily KQT member 1 (Homo sapiens)
# assay.protocol: KCNQ1 potassium channel potentiators, confirmation, FluxOR thallium flux, CHO cells, duplicates (AID 493007)
# measurement.conditions: KCNQ1 cell line, FluxOR thallium flux fluorescence, at 10 µM, % of reference activator effect, buffer zero
The source made the active and inactive calls.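 How the source made its calls: active means potentiation averaged over duplicate wells exceeding buffer-only control mean by more than 3 SD; inactive means the rest.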
# output must be one of 1.0 (active), 0.0 (inactive)

# count of solved cases: 10
>>> label("Cc1ccc(C)c(-n2c3nc(=O)n(C)c(=O)c-3cc3ccccc32)c1")
0.0
>>> label("Cc1cc(OCC(=O)NNC(=O)c2cnccn2)cc(C)c1Cl")
1.0
>>> label("Cn1nccc1C(=O)NC(=S)Nc1cc(Cl)cc(Cl)c1")
1.0
>>> label("Cc1nnc(SCC(=O)N(Cc2ccccc2)C(C)C)n1-c1ccccc1")
0.0
>>> label("CC1(C)CC(N=c2cc(-c3ccccc3)oc3ccc(Cl)cc23)CC(C)(C)N1")
0.0
>>> label("Cn1c(=O)c2c(ncn2CC(=O)OCC(=O)Nc2cc(Cl)ccc2Cl)n(C)c1=O")
0.0
>>> label("C=CCn1c(O)c(N=NC(=S)Nc2cccc(C)c2)c2ccccc21")
1.0
>>> label("CC(/C=N/NC(=O)c1cc(-c2cccs2)[nH]n1)=C\\c1ccccc1")
1.0
>>> label("CC1CCc2c(sc3[nH]c(=S)n(C)c(=O)c23)C1 (stereo not drawn)")
1.0
>>> label("CC(C)(C)NC(=O)C(=O)NNC(=O)c1cccc(Br)c1")
1.0

Fill in: this test's call for CS(=O)(=O)c1ccc(C(=O)OCc2nnc(-c3ccc(Cl)cc3)o2)cc1[N+](=O)[O-] is ___
1.0

CC(C)n1c(O)c(N=NC(=O)C2COc3ccccc3O2)c2ccccc21 (stereo not drawn) ?
1.0

Item: CC1CCC(n2c(=S)[nH]c3ccccc3c2=O)CC1 (stereo not drawn)
1.0

Would you kindly repeat that for O=C(Nc1cccc2cccnc12)c1ccc(Br)o1 ?
0.0

Continue with CC(Sc1nnnn1-c1ccc(O)cc1)C(=O)NC1CCCCC1C (stereo not drawn)
0.0

###

# subject.of.test: Potassium voltage-gated channel subfamily KQT member 1 (Homo sapiens) (UniProt P51787)
# assay.protocol: KCNQ1 potassium channel potentiators, confirmation, FluxOR thallium flux, CHO cells, duplicates (AID 493007);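 for outcome: cells depolarized by a potassium plus thallium sulfate stimulus after compound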
# measurement.conditions: KCNQ1 cell line, FluxOR thallium flux fluorescence, at 10 µM, % of reference activator effect, buffer zero
Activity calls are given as the source filed them.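 How the source made its calls: active means potentiation averaged over duplicate wells exceeding buffer-only control mean by more than 3 SD; inactive means the rest.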
Bench note: report the call from 1 (active), 0 (inactive)

Which outcome did this test record for the molecule Cc1ccccc1-c1nc(-c2ccccn2)no1 ?
0

###

# subject.of.test: Potassium voltage-gated channel subfamily KQT member 1 (Homo sapiens) (UniProt P51787)
# assay.protocol: KCNQ1 potassium channel potentiators, confirmation, FluxOR thallium flux, CHO cells, duplicates (AID 493007);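 for Outcome: cells depolarized by a potassium plus thallium sulfate stimulus after compound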
# measurement.conditions: KCNQ1 cell line, FluxOR thallium flux fluorescence, at 10 µM, % of reference activator effect, buffer zero
Active and inactive are the calls of the source.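 The calls were made as follows: active = potentiation averaged over duplicate wells exceeding buffer-only control mean by more than 3 SD; inactive = the rest.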
Outcome (select one): 1 for active, 0 for inactive

See these solved cases before continuing.
>>> label("Cc1nc2c(c3c1[nH]c1ccccc13)C(=O)CC(C)(C)C2")
0
>>> label("CCOC(=O)c1cccc(NC(=O)CCc2ccccc2)c1")
0
>>> label("COC(=O)c1sc(-c2ccccc2)cc1NC(=O)C1CC1")
0
>>> label("O=c1c2cc(Cl)ccc2[nH]c(=S)n1Cc1cccs1")
0
>>> label("CCOC(=O)c1c(N2C(=O)Nc3ccccc3N2O)n[nH]c1-c1cccc(Cl)c1")
0

Called result for O=C(Nc1nc2c(Br)cc(Br)cc2c(=O)s1)C1CCC1
1

Next compound up: CCOc1cccc(/C=N/NC(=O)C2CCCC2)c1O
0

Next entry: O=C(NC(=S)N1CCN(c2ccccc2)CC1)c1ccccc1
1

Now this one: O=C(CSc1nnc(-c2ccccn2)n1-c1ccc(Cl)cc1)Nc1ccc2c(c1)OCO2
0

Subsequent entry: Cc1ccc(-c2nn(-c3ccccc3)cc2/C=N/n2c(-c3cccs3)n[nH]c2=S)cc1
1

Next: O=C(CN1CCCCCC1)Nc1ccc(Oc2ccccc2)cc1
0

Values compiled from PubChem BioAssay.
